Test system: UACC-257 melanoma
Assay: NCI tumour cell line growth inhibition, 48 h

| MOLECULE | MEASURED ON | TGI |
| --- | --- | --- |
| CCOC(=O)C1=C(O)c2ccc(C)cc2C(=O)C1=O | UACC-257 melanoma | > 100 µM |
| O=C(O)/C(Cc1ccnc2ccccc12)=N\O | UACC-257 melanoma | > 100 µM |
| Cc1ccc2nc(NC(=O)C(=O)C(C#N)c3ccc(Cl)cc3)sc2c1 (configuration not stated) | UACC-257 melanoma | > 50 µM |
| COc1ccc(Oc2ccccc2N)cc1 | UACC-257 melanoma | > 100 µM |
| NC(=O)c1ccc(Oc2nccc(-c3c(-c4ccc(F)cc4)ncn3C3CCNCC3)n2)cc1 | UACC-257 melanoma | > 25 µM |
| Cc1c(C#N)cccc1[C@@H](C)Nc1nnc(C)c2cnc(N3CCOCC3)cc12 | UACC-257 melanoma | 94.5 µM |
| COc1ccc2cc(C(C)C(=O)N3C(=O)OCC3(C)C)ccc2c1 (configuration not stated) | UACC-257 melanoma | > 100 µM |
